tested-system: SHP2-C SH2;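 also: peptide library displayed on the E. coli surface as eCPX fusions, selected cells deep-sequenced, score is each peptide's frequency after selection divided by its frequency in the input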
protocol-summary: SH2 binding enrichment of the phosphorylated peptide, bacterial display (enrichment ratio); higher = better substrate or ligand; peptides without Tyr show the background
measured-attribute: SH2 binding enrichment

Below are worked cases with known answers.
{"primary-sequence": "ADQLDYIKALN [HPRT1_Y81_L78Q]", "SH2 binding enrichment": 0.559}
{"primary-sequence": "SVTCTYSPALF [TP53_Y126_N131Y_YF]", "SH2 binding enrichment": 0.685}
{"primary-sequence": "MGSYNYLGFAR [SPTLC2_Y178]", "SH2 binding enrichment": 3.37}

[1] PYIDSYEKDVA [PGM1_Y521_L516P]
[2] RLGNQYVNVMN [SLC3A1_Y461]
[3] SQSKGYRPKLF [SIPA1L3_Y1376_G1371S_YF]
[4] MDQAEYQAKIR [DHX58_Y518]
IN: Please put the entries in order of rising SH2 binding enrichment. Labels, requested order.
OUT: 3, 1, 4, 2
(3: 0.498, 1: 0.724, 4: 1.04, 2: 2.03)

[I] AAQNCYKVTNG [TPI1_Y105]
[II] VTDGKYAFKPK [GTF2E2_Y137_I133T]
IN: Identify the item whose SH2 binding enrichment is the smaller number: I or II Return value: the label identifying the chosen record.
OUT: I
(I: 0.543, II: 0.847)

[1] QAPPVYLDVLG [NTRK1_Y791]
[2] SGSFRYGSSFE [SELE_Y390_C394F]
[3] HFGNNYTDVLQ [MACC1_Y803_R804T_YF]
[4] CTTIHYIYMCN [TP53_Y234_N235I]
[5] NSIGNYYKPWF [DHCR24_Y299]
IN: List by increasing SH2 binding enrichment. Ranked list of labels, please, in the requested order.
OUT: 2, 1, 4, 5, 3
(2: 0.52, 1: 0.765, 4: 1.35, 5: 2.39, 3: 3.84)

The origin of these recorded values is the supplement of paper PMC10065799.
